# Test system: highly metastatic Lewis lung cancer cell lines
# assay-remarks: MTT growth inhibition, LLC cells
# Assay type: cell-based, mouse
# test-settings: Mus musculus, Lewis lung carcinoma, 72 h after treatment, read-out: Drug concentration (IC50) at which 50% cancer cells survived
Assign IC50 to each entry below.
Numbers only, in µM.

Take a look at these entries with their results.
| molecule | experimental-target | IC50 / µM |
| --- | --- | --- |
| O=C(O)c1cc2cc(Br)cc(Br)c2oc1=O | highly metastatic Lewis lung cancer cell lines | 350 |
| O=C(O)c1cc2cc([N+](=O)[O-])ccc2oc1=O | highly metastatic Lewis lung cancer cell lines | 370 |
| CCNC(=O)CCC(NC(=O)c1cc2ccccc2oc1=O)C(=O)OC (centres unmarked) | highly metastatic Lewis lung cancer cell lines | 185 |
| CCNC(=O)CC[C@@H](NC(=O)c1cc2cc(Cl)ccc2oc1=O)C(=O)OCC | highly metastatic Lewis lung cancer cell lines | 131 |
| CCNC(=O)CC[C@H](N)C(=O)OCC | highly metastatic Lewis lung cancer cell lines | 300 |

# map each molecule to its IC50
1. CCNC(=O)CC[C@@H](NC(=O)c1cc2cc(Br)cc(Br)c2oc1=O)C(=O)OCC
2. O=C(O)c1cc2cc(Br)ccc2oc1=O
3. O=C(O)c1cc2cc(F)ccc2oc1=O

Given back:
1. 53
2. 400
3. 380

---

# Tested on: human oral epidermoid cancer cells KBV200
# assay-remarks: MTT growth inhibition, KBV200 cells
# Format: cell-based
# test-settings: 72 h after treatment, read-out: Drug concentration (IC50) at which 50% cancer cells survived
Please go through the items and note down their pIC50.
One number for each entry, as −log10 of the molar value.

Example cases with answers are listed next.
| compound | recorded-measurement |
| --- | --- |
| CCNC(=O)CC[C@@H](NC(=O)c1cc2cc(Cl)ccc2oc1=O)C(=O)OCC [Compound Ic] | 4.01 |
| O=C(O)c1cc2cc(F)ccc2oc1=O [Compound IIIe, 6-fluorocoumarin-3-carboxylic acid] | 3.52 |

For each of the items listed, what is its pIC50?
1. O=C(O)c1cc2cc(Br)cc(Br)c2oc1=O [Compound IIIh, 6,8-dibromo-coumarin-3-carboxylic acid]
2. CCNC(=O)CCC(NC(=O)c1cc2cc([N+](=O)[O-])ccc2oc1=O)C(=O)OCC (stereo in doubt) [Compound If]
3. CCNC(=O)CC[C@H](N)C(=O)OCC [Compound IIb, theanine ethyl ester]
4. O=C(O)c1cc2cc([N+](=O)[O-])ccc2oc1=O [Compound IIIf, 6-nitrocoumarin-3-carboxylic acid]
5. O=C(O)c1cc2cc(Cl)cc(Cl)c2oc1=O [Compound IIIg, 6,8-dichloro-coumarin-3-carboxylic acid]

Given back:
[3.52, 3.99, 3.52, 3.52, 3.52]

---

# Tested on: human prostate cancer cells PC-3
# assay-remarks: MTT growth inhibition, PC-3 cells
# Format: cell-based
# test-settings: 72 h after treatment, read-out: Drug concentration (IC50) at which 50% cancer cells survived
measured-property: IC50 (µM)
Answers are plain numbers, in µM.

Field: example entries. Status: answers known.
| compound | IC50, µM |
| --- | --- |
| CCNC(=O)CCC(NC(=O)c1cc2ccccc2oc1=O)C(=O)OC (centres unmarked) | 146 |
| COc1cccc2c1C(=O)c1c(O)c3c(c(O)c1C2=O)C[C@@](O)(C(C)=O)C[C@@H]3O[C@H]1C[C@H](N)[C@H](O)[C@H](C)O1 [Daunorubicin, reference compound] | 51 |
| O=C(O)c1cc2cc(F)ccc2oc1=O | 520 |
| CCNC(=O)CC[C@@H](NC(=O)c1cc2cc(Br)ccc2oc1=O)C(=O)OCC | 110 |
| CCNC(=O)CC[C@@H](NC(=O)c1cc2cc(Br)cc(Br)c2oc1=O)C(=O)OCC | 87 |

Dear colleague, could you please provide IC50 for the compounds listed below?
1. O=C(O)c1cc2cc(Cl)ccc2oc1=O
2. O=C(O)c1cc2cc(Br)ccc2oc1=O

Given back:
1. 500
2. 500
